We begin with a simple list: items and their reported self-cleavage.
B1: Twister Ribozyme (parent)
chain: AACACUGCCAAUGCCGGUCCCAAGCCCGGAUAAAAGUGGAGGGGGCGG

Variants of: B1
procedure details: self-cleavage, relative activity (ratio to wild type); higher = more cleavage; co-transcriptional
Hey, just send me the number, nothing else.

Examples from the recorded data:
> print(dat)
                             input.sequence  measurement.type  reported.result
1  AACACUGCCAAUGCCGGUCCAAAGCCCGGAUAAAAGUGCAGGGGGCGG [C21A G39C]     self-cleavage            0.116
2  AACACUGCCAACGACGGUCCCAAGCCCGGAUAAAAGUGGAGGGGGCGG [U12C C14A]     self-cleavage            0.818
3  AAUACUGCCAAUGCCGGUCCCAAGCCCGGAUCAAAGUGGAGGGGGCGG [C3U A32C]     self-cleavage            0.532
4  AACACUGCCAAUUCCGGUCCCAAGCCCGGAUAAAAGGGGAGGGGGCGG [G13U U37G]     self-cleavage            0.119
5  AACACUGCCAAUGCCGGUUCCAAGCCCGGAUAAAAGUGGAGAGGGCGG [C19U G42A]     self-cleavage             0.17
6  AACACUGCCAAAGCCGGGCCCAAGCCCGGAUAAAAGUGGAGGGGGCGG [U12A U18G]     self-cleavage            0.106
7  AACACUGCCAAUGCCGGUCCCAAGCCCGAGUAAAAGUGGAGGGGGCGG [G29A A30G]     self-cleavage            0.892
8  AACACUGCCAAUGCCGGUCCCAAUGCCGGAUAAAAGUGGAGGGGGCGG [G24U C25G]     self-cleavage            0.104

Supply measured self-cleavage of AACACGGCUAAUGCCGGUCCCAAGCCCGGAUAAAAGUGGAGGGGGCGG [U6G C9U] in your reply.
0.163

Report self-cleavage, nothing else, for this variant: AACACUGCCAAUGCAGGUCCCAAGCCCGGAUGAAAGUGGAGGGGGCGG [C15A A32G]
0.583

# return recorded self-cleavage for entry AACACUGCUAAUGCCGGUCCCAAGCCCGGAUAAAAAUGGAGGGGGCGG [C9U G36A]
0.281

Data origin: the RNAGym collection of RNA variant scans (doi:10.7554/elife.80360)
